From: patent US20190092852A1

system.tested: T1, human IL-33 (R&D Systems, #3625-IL-010/CF) (human) (UniProt O95760)
T1 sequence (looked up): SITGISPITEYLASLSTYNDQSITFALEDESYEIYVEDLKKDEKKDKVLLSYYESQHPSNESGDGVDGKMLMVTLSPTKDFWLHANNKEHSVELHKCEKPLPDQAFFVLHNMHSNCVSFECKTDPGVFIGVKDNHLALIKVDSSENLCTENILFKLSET
test.readout: IC50; IFN-gamma ELISA, primary human NK cells, 260 pM hIL-33 + IL-12

{"binder": "H4H9663P (antibody, from another filing, IgG4, V domains shown) VH: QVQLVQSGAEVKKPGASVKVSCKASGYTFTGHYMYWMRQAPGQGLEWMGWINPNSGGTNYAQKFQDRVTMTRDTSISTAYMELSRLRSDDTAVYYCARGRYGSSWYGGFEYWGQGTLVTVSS VL: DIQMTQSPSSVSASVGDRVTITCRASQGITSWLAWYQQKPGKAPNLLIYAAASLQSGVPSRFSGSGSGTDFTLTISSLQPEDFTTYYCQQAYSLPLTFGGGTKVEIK", "result.value": "4.6e-09 M"}
{"binder": "H4H9676P (antibody, from another filing, IgG4, V domains shown) VH: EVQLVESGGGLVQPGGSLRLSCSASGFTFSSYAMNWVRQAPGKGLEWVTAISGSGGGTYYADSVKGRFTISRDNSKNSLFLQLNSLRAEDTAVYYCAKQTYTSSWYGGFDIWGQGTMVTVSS VL: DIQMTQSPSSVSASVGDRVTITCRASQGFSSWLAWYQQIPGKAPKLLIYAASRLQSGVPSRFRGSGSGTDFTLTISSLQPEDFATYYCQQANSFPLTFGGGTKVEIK", "result.value": "1.2e-09 M"}
{"binder": "H4H9662P (antibody, from another filing, IgG4, V domains shown) VH: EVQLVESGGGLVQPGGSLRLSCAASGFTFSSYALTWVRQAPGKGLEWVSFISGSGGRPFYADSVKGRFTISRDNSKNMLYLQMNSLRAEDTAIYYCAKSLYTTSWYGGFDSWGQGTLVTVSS VL: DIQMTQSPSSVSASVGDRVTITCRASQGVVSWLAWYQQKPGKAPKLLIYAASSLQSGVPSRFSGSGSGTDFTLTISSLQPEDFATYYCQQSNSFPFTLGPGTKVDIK", "result.value": "1.2e-09 M"}
{"binder": "H4H9660P (antibody, from another filing, IgG4, V domains shown) VH: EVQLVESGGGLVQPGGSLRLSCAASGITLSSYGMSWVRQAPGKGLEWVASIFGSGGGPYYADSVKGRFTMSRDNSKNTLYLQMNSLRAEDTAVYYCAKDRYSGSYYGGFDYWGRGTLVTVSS VL: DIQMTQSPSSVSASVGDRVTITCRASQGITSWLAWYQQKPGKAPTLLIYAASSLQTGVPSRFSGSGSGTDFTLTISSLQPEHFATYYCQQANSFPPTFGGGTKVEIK", "result.value": "2.4e-10 M"}
